Molecular target: 5-hydroxytryptamine receptor 2A (Rattus norvegicus, UniProt P14842)
Sequence (P14842 whole entry): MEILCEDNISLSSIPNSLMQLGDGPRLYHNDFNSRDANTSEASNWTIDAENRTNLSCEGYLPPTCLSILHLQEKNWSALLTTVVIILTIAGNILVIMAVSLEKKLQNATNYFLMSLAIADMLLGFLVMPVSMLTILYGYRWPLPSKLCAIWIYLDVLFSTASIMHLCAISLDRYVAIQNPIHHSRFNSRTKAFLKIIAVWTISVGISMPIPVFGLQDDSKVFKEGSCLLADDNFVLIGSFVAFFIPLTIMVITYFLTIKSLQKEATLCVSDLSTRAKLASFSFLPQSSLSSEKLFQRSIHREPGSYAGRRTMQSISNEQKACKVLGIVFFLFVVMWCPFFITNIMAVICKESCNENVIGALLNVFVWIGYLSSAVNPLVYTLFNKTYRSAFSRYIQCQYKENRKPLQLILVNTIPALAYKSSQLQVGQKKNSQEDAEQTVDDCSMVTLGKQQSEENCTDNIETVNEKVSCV
Assay: In vitro binding affinity at 5-hydroxytryptamine 2A receptor in rat cortical membrane
Assay type: cell membranes
parameter_measured: pKi
Remember the convention: pKi equals -log10 of concentration in molar.

Illustrative cases are given below, each with its answer.
[
  {
    "compound": "Cc1ccc2c(c1)C(N1CCN(CCc3ccccc3)CC1)=Nc1cccnc1N2",
    "observed_result": 7.44
  },
  {
    "compound": "Clc1ccc2c(c1)C(NCCN1CCCC1)=Nc1cccnc1N2",
    "observed_result": 6.60
  },
  {
    "compound": "Cc1ccc2c(c1)C(NCCN(C)C)=Nc1cccnc1N2",
    "observed_result": 6.82
  },
  {
    "compound": "Cc1ccc2c(c1)C(NC1CC3CCC(C1)N3Cc1ccccc1)=Nc1cccnc1N2 (stereo not drawn)",
    "observed_result": 7.47
  },
  {
    "compound": "Clc1ccc2c(c1)C(NC1CCN(Cc3ccccc3)CC1)=Nc1cccnc1N2",
    "observed_result": 7.09
  }
]

Using the record for Cc1ccc2c(c1)C(N1CCCN(C)CC1)=Nc1cccnc1N2 , report its pKi. 6.52

Using the record for Clc1ccc2c(c1)C(NC1CC3CCC(C1)N3Cc1ccccc1)=Nc1cccnc1N2 (stereo not drawn) , report its pKi. 7.44

Using the record for Cc1ccc2c(c1)C(N1CCN(C3CCCCC3)CC1)=Nc1cccnc1N2 , report its pKi. 7.48

Using the record for Clc1ccc2c(c1)C(N1CCN(CCc3ccccc3)CC1)=Nc1cccnc1N2 , report its pKi. 6.99

====

Biological target: 5-hydroxytryptamine receptor 2A (Rattus norvegicus, UniProt P14842)
Assay: In vitro binding affinity at 5-hydroxytryptamine 2A receptor in rat cortical membrane
Type: cell membranes
Each entry below carries its recorded Ki.

Illustrative cases are given below, each with its answer.
[
  {
    "molecule": "Cc1ccc2c(c1)C(NCCC1CCCN1C)=Nc1cccnc1N2 (centres undefined)",
    "observed_result": "> 1000 nM"
  },
  {
    "molecule": "Cc1ccc2c(c1)C(N1CCN(Cc3ccccc3)CC1)=Nc1cccnc1N2",
    "observed_result": "> 1000 nM"
  },
  {
    "molecule": "Clc1ccc2c(c1)C(N1CCN(c3ccccc3)CC1)=Nc1cccnc1N2",
    "observed_result": "> 1000 nM"
  }
]

Now for the molecule whose Ki we want.
State its Ki on 5-hydroxytryptamine receptor 2A (Rattus norvegicus, UniProt P14842): Cc1ccc2c(c1)C(NCCCN(C)C)=Nc1cccnc1N2 > 1000 nM

These data points were gathered from ChEMBL document CHEMBL1135647.
